Biological target: recombinant human ROR1 extracellular domain with a C-terminal 6xHis tag (human) (UniProt Q01973)
Sequence (Q01973 other isoform, or with tags, fused parts or gaps): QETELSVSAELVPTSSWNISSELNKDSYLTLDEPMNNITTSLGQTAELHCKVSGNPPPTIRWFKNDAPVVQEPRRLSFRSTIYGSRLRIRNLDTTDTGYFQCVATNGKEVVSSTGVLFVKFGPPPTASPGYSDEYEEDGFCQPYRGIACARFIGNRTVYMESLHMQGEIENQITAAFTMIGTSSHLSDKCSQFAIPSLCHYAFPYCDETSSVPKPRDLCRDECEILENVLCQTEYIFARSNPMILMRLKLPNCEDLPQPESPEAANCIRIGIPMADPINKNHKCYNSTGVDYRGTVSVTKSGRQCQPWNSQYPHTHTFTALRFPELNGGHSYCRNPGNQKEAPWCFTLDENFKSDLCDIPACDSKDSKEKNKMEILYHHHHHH
Assay: SPR (Biacore T200): scFv-mFc captured on anti-mouse IgG chip, ROR1 ECD 6xHis injected, multi-cycle kinetics, 1:1 model
In plain terms, low kon, meaning strictly below 100000 M⁻¹ s⁻¹, gives Yes, and everything else gives No.

Worked examples, 4 binders total:
>>> assigned_class("reference R12 scFv fused to murine IgG2a Fc (scFv-mFc) (Fc fusion, part only; not given: murine IgG2a Fc and junction, not shown: another chain or arm of the molecule; a dimerising Fc or GST) scFv: QEQLVESGGRLVTPGGSLTLSCKASGFDFSAYYMSWVRQAPGKGLEWIATIYPSSGKTYYATWVNGRFTISSDNAQNTVDLQMNSLTAADRATYFCARDSYADDGALFNIWGPGTLVTISSGGGGSGGGGSGGGGSELVLTQSPSVSAALGSPAKITCTLSSAHKTDTIDWYQQLQGEAPRYLMQVQSDGSYTKRPGVPDRFSGSSSGADRYLIIPSVQADDEADYYCGADYIGGYVFGGGTQLTVTG")
"No"
>>> assigned_class("anti-ROR1 scFv ROR1-2 fused to murine IgG2a Fc (scFv-mFc) (Fc fusion, part only; not given: murine IgG2a Fc and junction, not shown: another chain or arm of the molecule; a dimerising Fc or GST) scFv: QLQLQESGPGLVKPSETLSLTCTVSGGSINSTTSYWAWIRQPPGKGLEWIGTIFYSGKTYNNPSLKSRVTMSVDTSKNHFSLKVNSVTAADTAVYYCARFDYGFHDAFDIWGQGTMVTVSSGGGGSGGGGSGGGGSEIVMTQSPATLSLSPGERATLSCRASQSITSDYLSWYQQKPGQAPRLLIYGASTRATGIPARFSGSGSGTDFTLTISSLQPEDFVVYYCQQDYNLYTFGQGTKLEIKR")
"No"
>>> assigned_class("anti-ROR1 scFv ROR1-1 fused to murine IgG2a Fc (scFv-mFc) (Fc fusion, part only; not given: murine IgG2a Fc and junction, not shown: another chain or arm of the molecule; a dimerising Fc or GST) scFv: QVQLQESGPGLVKPSETLSLTCTVSGGSISNYYWSWIRQPAGKGLEWIGRIYTSGSTNYNPSLKSRVTMSVDTSKNQFSLKLSSLTAADTAIYYCARYYDILTGFFDYWGQGTLVTVSSGGGGSGGGGSGGGGSVIWMTQSPSLLSASTGDSVTISCRMSQDISSYLAWYQQKPGKAPELLIYAASSLQSGVPSRFSGSGSGTDFTLTISSLQSEDFATYYCQQYDSFPPTFGQGTKVEFKR")
"No"
>>> assigned_class("anti-ROR1 scFv ROR1-4 fused to murine IgG2a Fc (scFv-mFc) (Fc fusion, part only; not given: murine IgG2a Fc and junction, not shown: another chain or arm of the molecule; a dimerising Fc or GST) scFv: QVQLLQSGAEVKKPGASVKVSCKASGYTFTSYGISWVRQAPGQGLEWMGWISAYTGNTRYAQKLQGRVTMTTDTSTSTAYMELRSLRSDDTAVYYCAREEGATTDYDYYGMDVWGQGTAVTVSSGGGGSGGGGSGGGGSQLVLTQSPSASASLGASVKLTCTLSSGHSSYAIAWHQQQPEKGPRYLMKLNSDGSHSKGDGIPDRFSGSSSGAERYLTISSLQSEDEADYYCQTWGTGIRVFGGGTKLTVLG")
"Yes"

Qu. Quick check: does anti-ROR1 scFv ROR1-3 fused to murine IgG2a Fc (scFv-mFc) (Fc fusion, part only; not given: murine IgG2a Fc and junction, not shown: another chain or arm of the molecule; a dimerising Fc or GST) scFv: QVQLVQSGAEVKKPGASVKVSCKASGYTFTSYGISWVRQAPGQGLEWMGWISAYNGNTKYAQKLQGRVTMTTDTSTSTAYMELRSLRSDDTAVYYCARDEDILTGYNYYGMDVWGQGTTVTVSSGGGGSGGGGSGGGGSQLVLTQSPSASASLGASVKLTCTLSSGHSSYAIAWHQQQPEKGPRYLMKLNSDGSHSKGDGIPDRFSGSSSGAERYLTISSLQSEDEADYYCQTWGTGIRVFGGGTKLTVLG have kon under 100000 M⁻¹ s⁻¹?
Ans. Yes
